Entry source: patent US20050074758A1

Target: prokineticin receptor(s) of guinea pig ileum (ileal membranes; ileal longitudinal smooth muscle) (guinea pig)
Test: cell-based or functional assay
endpointName: time constant to midway contraction of ileal strips (min)

// below: answered binders
time constant to midway contraction of ileal strips lookup needed for chimeric prokineticin 12 (exons 1 and 2 of prokineticin 1, exon 3 of prokineticin 2) (ligand) AVITGACERDVQCGAGTCCAISLWLRGLRMCTPLGREGEECHPGSHKVPFFGRRMHHTCPCLPGLACLRTSFNRFICLAQK , thanks. 40

Then this binder: recombinant refolded human prokineticin 2 (unlabeled), 6×His-tagged (ligand) AVITGACDKDSQCGGGMCCAVSIWVKSIRICTPMGKLGDSCHPLTRKVPFFGRRMHHTCPCLPGLACLRTSFNRFICLAQKHHHHHH 15

1: chimeric prokineticin 21 (exons 1 and 2 of prokineticin 2, exon 3 of prokineticin 1) (ligand) AVITGACDKDSQCGGGMCCAVSIWVKSIRICTPMGKLGDSCHPLTRKVPFFRKRKHHTCPCLPNLLCSRFPDGRYRCSMDLKNINF
2: recombinant refolded human prokineticin 1 (unlabeled), 6×His-tagged (ligand) AVITGACERDVQCGAGTCCAISLWLRGLRMCTPLGREGEECHPGSHKVPFFRKRKHHTCPCLPNLLCSRFPDGRYRCSMDLKNINFHHHHHH
Could you check which of 1 and 2 has a smaller value for time constant to midway contraction of ileal strips? Answer with the label corresponding to your selection. 2
(2: 15 min, 1: 40 min)
